experiment: Volume of distribution at steady state in patient with bacterial infection at 1 gm, iv administered at 30 mins regimen for 24 hrs by LC/MS/MS analysis; conditions: human, in vivo, read-out: Vdss
REPORTED_METRIC: Vd (L)

[
  {
    "COMPOUND": "C[C@@H](O)[C@H]1C(=O)N2C(C(=O)O)=C(S[C@@H]3CN[C@H](C(=O)Nc4cccc(C(=O)O)c4)C3)[C@H](C)[C@H]12 [ERTAPENEM]",
    "REPORTED_METRIC": "Vd",
    "RECORDED_RESULT": 16.1
  }
]

----------
experiment: Tmax in patient with bacterial infection at 1 gm[…], iv administered at 30 mins regimen for 24 hrs by LC/MS/MS analysis; type: ADME, organism-based; details: human, in vivo

[
  {
    "ITEM_SMILES": "C[C@@H](O)[C@H]1C(=O)N2C(C(=O)O)=C(S[C@@H]3CN[C@H](C(=O)Nc4cccc(C(=O)O)c4)C3)[C@H](C)[C@H]12",
    "Tmax (min)": 30
  }
]

These entries and their values trace back to ChEMBL document CHEMBL1240363.
